The measurements presented in this section are drawn from PubChem BioAssay AID743170.

# System: H9c2 cells, Nile red TAG accumulation, high-content imaging
# ASSAY REMARKS: inhibitors of cytoplasmic TAG accumulation in H9c2, dose response, imaging, H9c2 cells, high-content screening (AID 743170)
Calls of active or inactive are those of the source.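 Rule for the calls: active = compounds that lower Nile red lipid droplet staining in rat heart muscle cells with dose, giving a fitted IC50; inactive = the rest.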
Labels: active, inactive

> print(dat)
                                 chem.smiles                             tested.target  assigned.label
 1  COCCN1Cc2cccc(C(=O)Nc3cccc(C(=O)Nc4ccccc4OC)c3)c2C1=O  H9c2 cells, Nile red TAG accumulation, high-content imaging          active
 2  O=C(Nc1cccc(-c2nc3ccccc3[nH]2)c1)c1cccc2c1C(=O)N(CCc1ccccc1)C2  H9c2 cells, Nile red TAG accumulation, high-content imaging          active
 3       COCCN1Cc2cccc(C(=O)Nc3cccnc3)c2C1=O  H9c2 cells, Nile red TAG accumulation, high-content imaging        inactive
 4  O=C(Nc1cccc(-c2nc3ccccc3[nH]2)c1)c1cccc2c1C(=O)N(CCN1CCOCC1)C2  H9c2 cells, Nile red TAG accumulation, high-content imaging          active
 5  COCCN1Cc2cccc(C(=O)Nc3cccc(C(=O)Nc4ccccc4)c3)c2C1=O  H9c2 cells, Nile red TAG accumulation, high-content imaging          active
 6  O=C(Nc1cccc(-c2nc3ccccc3[nH]2)c1)c1cccc2c1C(=O)N(CC1CC1)C2  H9c2 cells, Nile red TAG accumulation, high-content imaging          active
 7  COCCN1Cc2cccc(C(=O)Nc3nc4ccccc4[nH]3)c2C1=O  H9c2 cells, Nile red TAG accumulation, high-content imaging        inactive
 8  COCCn1cnc2cccc(C(=O)Nc3cccc(-c4nc5ccccc5[nH]4)c3)c2c1=O  H9c2 cells, Nile red TAG accumulation, high-content imaging        inactive
 9  COCCN1Cc2cccc(C(=O)Nc3cccc(-c4nc5ccc(F)cc5[nH]4)c3)c2C1=O  H9c2 cells, Nile red TAG accumulation, high-content imaging          active
10  CCOC(=O)c1cccc(NC(=O)c2cccc3c2C(=O)N(CCOC)C3)c1  H9c2 cells, Nile red TAG accumulation, high-content imaging        inactive
11  COc1ccccc1CCN1Cc2cccc(C(=O)Nc3cccc(-c4nc5ccccc5[nH]4)c3)c2C1=O  H9c2 cells, Nile red TAG accumulation, high-content imaging          active
12  CCOCCN1Cc2cccc(C(=O)Nc3cccc(-c4nc5ccccc5[nH]4)c3)c2C1=O  H9c2 cells, Nile red TAG accumulation, high-content imaging          active
13  COCCN1Cc2cccc(C(=O)Nc3cccc(-c4nc5ccc(C(F)(F)F)cc5[nH]4)c3)c2C1=O  H9c2 cells, Nile red TAG accumulation, high-content imaging          active
14  COCCN1Cc2cccc(C(=O)Nc3nc4ccccc4n3C)c2C1=O  H9c2 cells, Nile red TAG accumulation, high-content imaging        inactive
15  COCCN1Cc2cccc(C(=O)Nc3cccc(-c4nc5ccc(Cl)cc5[nH]4)c3)c2C1=O  H9c2 cells, Nile red TAG accumulation, high-content imaging          active
16  CSCCCN1Cc2cccc(C(=O)Nc3cccc(-c4nc5ccccc5[nH]4)c3)c2C1=O  H9c2 cells, Nile red TAG accumulation, high-content imaging          active
17  O=C(Nc1cccc(-c2nc3ccccc3[nH]2)c1)c1cccc2c1C(=O)N(CCOc1ccccc1)C2  H9c2 cells, Nile red TAG accumulation, high-content imaging          active
18  COc1ccc(CCN2Cc3cccc(C(=O)Nc4cccc(-c5nc6ccccc6[nH]5)c4)c3C2=O)cc1OC  H9c2 cells, Nile red TAG accumulation, high-content imaging          active
19  COCCCN1Cc2cccc(C(=O)Nc3cccc(-c4nc5ccccc5[nH]4)c3)c2C1=O  H9c2 cells, Nile red TAG accumulation, high-content imaging          active
20  CCCCN1Cc2cccc(C(=O)Nc3cccc(-c4nc5ccccc5[nH]4)c3)c2C1=O  H9c2 cells, Nile red TAG accumulation, high-content imaging          active
21  COCCN1Cc2cccc(C(=O)NCc3cccc(N(C)C)c3)c2C1=O  H9c2 cells, Nile red TAG accumulation, high-content imaging        inactive
22  COCCN1Cc2cccc(C(=O)Nc3cccc(-c4nc5ccc(C)cc5[nH]4)c3)c2C1=O  H9c2 cells, Nile red TAG accumulation, high-content imaging          active
